Target: TYK2 (Homo sapiens, UniProt P29597)
Sequence (P29597 whole entry): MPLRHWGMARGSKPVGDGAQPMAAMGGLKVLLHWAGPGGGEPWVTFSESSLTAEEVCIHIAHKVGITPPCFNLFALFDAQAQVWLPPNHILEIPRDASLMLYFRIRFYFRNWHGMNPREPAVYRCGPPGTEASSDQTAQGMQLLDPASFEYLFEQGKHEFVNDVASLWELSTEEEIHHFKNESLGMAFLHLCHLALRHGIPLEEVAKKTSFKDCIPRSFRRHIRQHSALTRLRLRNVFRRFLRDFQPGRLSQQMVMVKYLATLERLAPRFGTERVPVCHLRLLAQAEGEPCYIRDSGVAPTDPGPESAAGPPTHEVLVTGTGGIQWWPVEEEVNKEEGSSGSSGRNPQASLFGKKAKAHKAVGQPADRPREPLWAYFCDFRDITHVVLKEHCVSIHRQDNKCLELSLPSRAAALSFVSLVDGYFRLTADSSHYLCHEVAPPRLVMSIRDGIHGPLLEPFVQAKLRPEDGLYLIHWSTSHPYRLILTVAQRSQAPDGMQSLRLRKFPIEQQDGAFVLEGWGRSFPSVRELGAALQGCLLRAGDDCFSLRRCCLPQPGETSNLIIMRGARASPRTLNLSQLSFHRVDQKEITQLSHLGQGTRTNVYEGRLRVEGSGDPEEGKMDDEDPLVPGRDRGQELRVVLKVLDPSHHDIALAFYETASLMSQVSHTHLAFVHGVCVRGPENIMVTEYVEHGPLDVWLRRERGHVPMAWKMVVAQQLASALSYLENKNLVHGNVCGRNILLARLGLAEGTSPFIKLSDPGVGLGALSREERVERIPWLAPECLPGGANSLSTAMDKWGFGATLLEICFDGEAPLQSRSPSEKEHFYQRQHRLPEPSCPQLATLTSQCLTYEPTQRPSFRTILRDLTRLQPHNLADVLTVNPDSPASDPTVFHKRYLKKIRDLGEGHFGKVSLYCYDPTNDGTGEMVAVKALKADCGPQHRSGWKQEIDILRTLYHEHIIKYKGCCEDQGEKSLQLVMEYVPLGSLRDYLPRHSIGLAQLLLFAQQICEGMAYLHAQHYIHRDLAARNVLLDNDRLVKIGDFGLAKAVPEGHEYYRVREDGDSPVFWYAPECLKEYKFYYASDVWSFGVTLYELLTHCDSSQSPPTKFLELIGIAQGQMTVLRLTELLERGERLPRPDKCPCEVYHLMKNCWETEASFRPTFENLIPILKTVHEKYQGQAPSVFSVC
Assay: TYK2 degradation MSD assay in human PBMC cells
Assay type: cell-based
Parameters: endogenous in cells; host or cells: human PBMC
Details: 4 to 24 hours incubation, read-out: TYK2 MSD DC50 rating in human PBMC
Description: Example 3. TYK2 Degradation MSD Assay in EBV-B, OCI-LY10, and Human PBMC Cells Degradation of TYK2 in cells was quantitatively measured using Meso Scale Discovery (MSD) technology. […] The assay plates were then incubated at room temperature for 1 hour, washed 3 times with 150 μl/well TBST buffer, and 150 μl/well MSD reading buffer (MSD, R92TC-2) were added. The plates were then analyzed by an MSD reader. […]
Provide the recorded DC50 for the entries that follow.

Provide the documented DC50 with TYK2 (Homo sapiens, UniProt P29597) as the system for CNc1cc(Nc2cccn(-c3ccc(C(=O)C4CCC(C5CCN(c6ccc7c(c6)n(C)c(=O)n7C6CCC(=O)NC6=O)C5)CN4)cn3)c2=O)nn2c(C(=O)N[C@@H]3C[C@@H]3F)cnc12 (some centres unmarked) > 100 nM

Also need CNC(=O)c1cnc(Nc2ccc(C(=O)NCCCCc3cccc4c3n(C)c(=O)n4C3CCC(=O)NC3=O)cn2)cc1Nc1ccccc1OC (centres unmarked) , thanks. 1 to 10 nM

Another molecule to check: CNC(=O)c1cnc(Nc2ccc(C(=O)N(C)C3CCN(c4cccc5c4n(C)c(=O)n5C4CCC(=O)NC4=O)CC3)cn2)cc1Nc1ccccc1OC (centres unmarked) > 100 nM

Cool, now CNc1cc(-c2cnn(C3CCC(CN4CC5(CCN(c6ccc7c(c6)n(C)c(=O)n7C6CCC(=O)NC6=O)CC5)C4)CC3)c2)nn2c(C(=O)N[C@@H]3C[C@@H]3F)cnc12 (some centres unmarked) < 1 nM

Note, next up: CNC(=O)c1cnc(Nc2ccc(C(=O)NCCOCCOCCOCCOCCc3ccc4c(c3)n(C)c(=O)n4C3CCC(=O)NC3=O)cn2)cc1Nc1cccc(-c2ncc(F)cn2)c1OC (centres unmarked) 1 to 10 nM
